- experimental setup: pH 9.0
test readout: logD
Simply state the number, no unit and no words.

Req: Request the reported logD associated with CNC(=O)Oc1ccc(N(C)C)c(C)c1
Resp: 1.9

---

test readout: logP
Simply state the number, no unit and no words.

COP(=S)(OC)SCSc1ccc(Cl)cc1 :: 4.82

Req: Request the reported logP associated with Cc1cc(Cl)ccc1/N=C/N(C)C
Resp: 2.89

Req: Request the reported logP associated with CCOP(=S)(OCC)Oc1ccc(S(C)=O)cc1 (stereo not given)
Resp: 2.23

Req: Request the reported logP associated with CCOP(=O)(OCC)Oc1cc(C)nc(C(C)C)n1
Resp: 2.07

Req: Request the reported logP associated with CCOP(=S)(OCC)Oc1ccc(N)cc1
Resp: 2.6

---

Output yes for logP not less than 4; output no otherwise.

Solved entries (count: 6):
CCOP(=S)(OCC)Oc1cc(C)nc(N(CC)CC)n1 :: yes
CCOP(=S)(OCC)SCCS(=O)(=O)CC :: no
COP(=O)(Oc1cc(Cl)c(Br)cc1Cl)c1ccccc1 (stereo not drawn) :: yes
COP(=O)(OC)SCn1nnc2ccccc2c1=O :: no
CCOP(=S)(OCC)Oc1cc(Cl)c(Br)cc1Cl :: yes
CCOP(=S)(OCC)Oc1ccc(SC)cc1 :: yes

Req: Decide: logP of COP(=S)(Oc1cc(Cl)c(Br)cc1Cl)c1ccccc1 (stereo not drawn) >= 4?
Resp: yes

Req: Decide: logP of CCOP(=S)(OCC)Oc1cc(C)nc(C(C)C)n1 >= 4?
Resp: no

Req: Decide: logP of COP(=S)(OC)Oc1cc(Cl)c(Br)cc1Cl >= 4?
Resp: yes

Req: Decide: logP of COP(=S)(OC)SCN1C(=O)c2ccccc2C1=O >= 4?
Resp: no

Req: Decide: logP of CCOP(=S)(OCC)Oc1ccc(S(C)(=O)=O)cc1 >= 4?
Resp: no

Req: Decide: logP of CCOP(=O)(OCC)SCS(=O)(=O)CC >= 4?
Resp: no

Req: Decide: logP of CCOP(=O)(OCC)Oc1ccc([N+](=O)[O-])cc1 >= 4?
Resp: no

Origin of measurements: the SangsterLogP compilation
